- Subject Of Test: T1, hPD-1-Fc (human, UniProt Q15116 25-167)
- T1 construct: domain: IgV domain; also called human PD-1-Fc; not shown: human IgG1 Fc
- Method: blocking ELISA, hPD-1-Fc to hPD-L1-Fc
Property Measured: Inhibition % (30 nM)

The cases that follow already have their Inhibition % (30 nM) on record.
| Binder | Inhibition % (30 nM) |
| --- | --- |
| 24H9 (antibody, human IgG1, V domains shown) VH: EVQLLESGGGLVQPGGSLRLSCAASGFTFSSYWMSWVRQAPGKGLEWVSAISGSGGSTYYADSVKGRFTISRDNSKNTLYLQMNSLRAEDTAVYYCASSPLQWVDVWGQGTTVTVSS VL: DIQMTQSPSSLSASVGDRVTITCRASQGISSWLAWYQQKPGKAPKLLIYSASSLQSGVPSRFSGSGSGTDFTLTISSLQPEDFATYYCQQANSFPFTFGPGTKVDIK | 92.9% |
| 23A11 (antibody, human IgG1, V domains shown) VH: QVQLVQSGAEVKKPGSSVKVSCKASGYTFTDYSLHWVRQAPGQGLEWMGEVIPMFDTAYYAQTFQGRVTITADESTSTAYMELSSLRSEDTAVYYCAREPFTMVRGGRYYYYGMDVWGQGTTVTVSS VL: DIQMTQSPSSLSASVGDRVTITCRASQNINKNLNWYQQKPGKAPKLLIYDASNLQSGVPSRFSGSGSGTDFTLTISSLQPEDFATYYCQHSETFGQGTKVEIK | 86.6% |
| 23A8 (antibody, human IgG1, V domains shown) VH: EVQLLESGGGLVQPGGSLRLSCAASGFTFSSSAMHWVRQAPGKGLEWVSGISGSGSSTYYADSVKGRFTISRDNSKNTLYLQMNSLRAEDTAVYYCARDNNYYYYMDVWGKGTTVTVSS VL: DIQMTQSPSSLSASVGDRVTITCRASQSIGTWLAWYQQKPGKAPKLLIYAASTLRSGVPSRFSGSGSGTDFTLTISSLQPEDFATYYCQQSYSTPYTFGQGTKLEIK | 93.1% |

Next, consider the following binder.
Task item: Can you share its Inhibition % (30 nM)? I mean this binder: 19B10 (antibody, human IgG1, V domains shown) VH: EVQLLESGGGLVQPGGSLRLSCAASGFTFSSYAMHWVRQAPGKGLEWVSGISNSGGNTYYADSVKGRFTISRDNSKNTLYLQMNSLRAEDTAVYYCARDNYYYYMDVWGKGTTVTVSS VL: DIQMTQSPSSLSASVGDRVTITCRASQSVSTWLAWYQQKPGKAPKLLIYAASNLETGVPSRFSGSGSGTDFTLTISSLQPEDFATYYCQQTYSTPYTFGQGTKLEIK
Reply: 65.2%
